- assayed target: OGA (Homo sapiens)
- Construct: endogenous in cells; host or cells: HEK293 cells inducible for P301L mutant human Tau (2N4R)
- Sequence (O60502 1-916): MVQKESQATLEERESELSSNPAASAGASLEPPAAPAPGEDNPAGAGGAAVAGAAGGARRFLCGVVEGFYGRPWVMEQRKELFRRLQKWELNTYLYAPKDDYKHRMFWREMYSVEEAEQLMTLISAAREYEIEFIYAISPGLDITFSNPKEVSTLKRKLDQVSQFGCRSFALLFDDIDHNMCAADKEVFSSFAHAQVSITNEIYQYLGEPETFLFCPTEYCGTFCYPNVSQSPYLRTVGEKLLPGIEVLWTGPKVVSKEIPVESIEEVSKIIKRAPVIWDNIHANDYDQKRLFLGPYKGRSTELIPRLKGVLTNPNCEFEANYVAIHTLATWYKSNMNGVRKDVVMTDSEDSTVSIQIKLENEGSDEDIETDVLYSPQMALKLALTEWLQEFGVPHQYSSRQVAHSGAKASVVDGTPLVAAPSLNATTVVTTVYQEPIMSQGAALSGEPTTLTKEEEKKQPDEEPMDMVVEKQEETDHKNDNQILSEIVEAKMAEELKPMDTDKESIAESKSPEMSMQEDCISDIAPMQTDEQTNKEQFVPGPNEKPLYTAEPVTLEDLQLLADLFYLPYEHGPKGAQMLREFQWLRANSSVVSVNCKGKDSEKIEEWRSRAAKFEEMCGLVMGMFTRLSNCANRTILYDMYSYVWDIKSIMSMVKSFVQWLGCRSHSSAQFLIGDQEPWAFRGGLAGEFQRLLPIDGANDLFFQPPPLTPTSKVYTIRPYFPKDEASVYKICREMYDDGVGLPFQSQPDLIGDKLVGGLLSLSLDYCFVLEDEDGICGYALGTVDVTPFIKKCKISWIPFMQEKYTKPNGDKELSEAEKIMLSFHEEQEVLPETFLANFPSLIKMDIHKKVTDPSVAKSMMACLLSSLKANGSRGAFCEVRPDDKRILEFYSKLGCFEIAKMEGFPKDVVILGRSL
- procedure text: OGA cellular assay (ICC detection of O-GlcNAcylated proteins in HEK293 cells inducible for P301L mutant human Tau)
- Assay type: cell-based
- settings: HEK293 cells inducible for P301L mutant human Tau, 6 hours incubation; read-out: Cellular hOGA; pEC50 (converted)
The label label 1 is reserved for EC50 strictly under 0.02 µM; label 0 covers values equal to or above it.

Criterion: EC50 strictly below 0.02 µM. Is it met by COc1cc(NCC2CCCN(C(C)c3ccc4c(c3)OCC4)C2)cc(C)n1 (stereo not drawn) ?
label 1

hey, is EC50 for Cc1cc(C[C@H]2CCCN(C(C)c3cc4c(cc3F)OCCO4)C2)cc(C)n1 (mixture of isomers) [Product 40] lower than 0.02 µM or not?
label 1

---

- assayed target: OGA (Homo sapiens, UniProt O60502)
- Construct: endogenous in cells; host or cells: HEK293 cells inducible for P301L mutant human Tau (2N4R)
- procedure text: OGA cellular assay (ICC detection of O-GlcNAcylated proteins in HEK293 cells inducible for P301L mutant human Tau)
- Format: cell-based
- settings: HEK293, HEK293 cells inducible for P301L mutant human Tau, maximal effect; Thiamet G 200 uM as maximum
quantity measured: Emax
Number plus unit, in that order.

Some solved cases for reference:
molecule: Cc1cc([C@H]2CCCN([C@H](C)c3ccc4c(n3)OCCO4)C2)c(F)c(C)n1 (single isomer, unassigned)
assayed target: OGA (Homo sapiens, UniProt O60502)
recorded measurement: -6%
--
molecule: COc1cc(C2CCCN(C(C)c3ccc4c(n3)OCCO4)C2)cc(C(F)(F)F)n1 (centres unmarked)
assayed target: OGA (Homo sapiens, UniProt O60502)
recorded measurement: 52%
--
molecule: Cc1cc(C2CCCN(C(C)c3nc4c(cc3F)OCCO4)C2)c(F)c(C)n1 (centres unmarked)
assayed target: OGA (Homo sapiens, UniProt O60502)
recorded measurement: 88%
--
molecule: Cc1cc([C@H]2CCCN(C(C)c3nc4c(cc3F)CCO4)C2)cc(C)n1 (single isomer, unassigned)
assayed target: OGA (Homo sapiens, UniProt O60502)
recorded measurement: 78%

Please examine the following record next.
Which Emax is reported for this molecule? COc1cc(OC[C@H]2CCCN(C(C)c3ccc4c(n3)OCCO4)C2)cc(C)n1 (single isomer, unassigned)
-17%

---

Collected Emax values appear next to each entry.
- assayed target: OGA (Homo sapiens)
- Construct: endogenous in cells; host or cells: HEK293 cells inducible for P301L mutant human Tau (2N4R)
- procedure text: OGA cellular assay (ICC detection of O-GlcNAcylated proteins in HEK293 cells inducible for P301L mutant human Tau)
- Type: cell-based
- settings: HEK293, HEK293 cells inducible for P301L mutant human Tau, maximal effect; Thiamet G 200 uM as maximum
# value in %; strip the unit string

molecule: Cc1cc(C2CCCN(C(C)c3nc4c(cc3F)CCO4)C2)cc(C)n1 (stereo not shown) [Product 148]
assayed target: OGA (Homo sapiens)
measure unit: %
recorded measurement: 78

Which Emax reading was recorded for the molecule Cc1cc(C[C@H]2CCCN(C(C)c3ccc4c(c3)OCC4)C2)cc(C)n1 (mixture of isomers) [Product 47] ?
81

Consider the molecule shown here: Cc1cc(C[C@H]2CCCN(C(C)c3cnc4c(c3)OCCO4)C2)cc(C)n1 (single isomer, unassigned) [Product 132] What is its recorded Emax?
77

Quick check: Emax of COc1cc(NCC2CCCN(C(C)c3ccc4c(n3)OCCO4)C2)cc(C)n1 (stereo not shown) [Product 23] ?
81

---

- assayed target: recombinant human Meningioma Expressed Antigen 5 (MGEA5), also referred to as O-GlcNAcase (OGA) (Homo sapiens)
- Construct: Full length OGA enzyme was purchased at OnGene (cat #TP322411); purchased OnGene (so in the source)
- procedure text: OGA biochemical assay (inhibition of FM-GlcNAc hydrolysis, fluorescence)
- settings: maximal effect, read-out: Enzymatic Emax (%)
quantity measured: Emax (%)
# value in %; strip the unit string

compound: Cc1cc(CC2(F)CCCN([C@H](C)c3ccc4c(n3)OCCO4)C2)cc(C)n1 (single isomer, unassigned)
Emax, %: 99
//
compound: Cc1cc(C[C@H]2CCCN(Cc3ccc4c(n3)OCC(=O)N4)C2)cc(C)n1
Emax, %: 78
//
compound: Cc1cc([C@H]2CCCN(C(C)c3ccc4c(n3)OCCO4)C2)cc(C)n1 (single isomer, unassigned)
Emax, %: 100
//
compound: Cc1cc(OC[C@@H]2CCCN([C@H](C)c3ccc4c(n3)OCCO4)C2)cc(C)n1 (relative stereo)
Emax, %: 95
//
compound: Cc1cc(OC[C@H]2CCCN(C(C)c3nc4c(cc3F)CCO4)C2)cc(C)n1 (single isomer, unassigned) [Product 179]
Emax, %: 100
//
compound: Cc1cc(C[C@H]2CCCN(Cc3cc4c(cc3C)OCCO4)C2)cc(C)n1
Emax, %: 92
//
compound: COc1cc(NCC2CCCN(C(C)c3ccc4c(n3)OCCO4)C2)cc(C)n1 (stereo not shown)
Emax, %: 100
//
compound: Cc1cc(C[C@H]2CCCN(C(C)c3ccc4c(n3)OCC(=O)N4)C2)cc(C)n1 (mixture of isomers)
Emax, %: 102
//
compound: Cc1cc([C@H]2CCCN([C@H](C)c3ccc4c(n3)OCCO4)C2)c(F)c(C)n1 (single isomer, unassigned)
Emax, %: 83
//
compound: Cc1cc(C2CCCN(C(C)c3cc4c(cc3F)NCCO4)C2)cc(C)n1 (stereo not shown)
Emax, %: 101

Now, please, on to the next compound.
Can you share its Emax? I mean this compound: Cc1cc(C2CCCN(C(C)c3nc4c(cc3F)OCCO4)C2)cc(C(F)F)n1 (stereo not shown)
96

---

- assayed target: recombinant human Meningioma Expressed Antigen 5 (MGEA5), also referred to as O-GlcNAcase (OGA) (Homo sapiens, UniProt O60502)
- Construct: Full length OGA enzyme was purchased at OnGene (cat #TP322411); purchased OnGene (so in the source)
- procedure text: OGA biochemical assay (inhibition of FM-GlcNAc hydrolysis, fluorescence)
- settings: read-out: Enzymatic hOGA, pIC50 (converted)
Could you mark each record Condition met if its IC50 falls strictly under 300 nM, and Condition not met if it equals or exceeds it?

Field: example entries. Status: answers known.
compound: COc1cc(C2CCCN(C(C)c3ccc4c(n3)OCCO4)C2)cc(C(F)(F)F)n1 (centres unmarked) [Product 10]
class label: Condition met

compound: Cc1cc(C2CCCN(C(C)c3ccc4c(n3)OCCO4)C2)cc(C(F)(F)F)n1 (centres unmarked) [Product 8]
class label: Condition met

compound: Cc1cc(OC2CCCN(C(C)c3ccc4c(n3)OCCO4)C2)cc(C)n1 (centres unmarked) [Product 136]
class label: Condition met

compound: Cc1cc(C[C@H]2CCCN(C(C)c3cnc4c(c3)OCCN4)C2)cc(C)n1 (mixture of isomers) [Product 50]
class label: Condition met

compound: COc1cc(NC[C@@H]2CCCN(C(C)c3ccc4c(n3)OCCO4)C2)cc(C)n1 (single isomer, unassigned) [Product 28]
class label: Condition not met

compound: Cc1cc([C@H]2CCCN([C@@H](C)c3ccc4c(n3)OCCO4)C2)cc(C)n1 (single isomer, unassigned) [Product 159]
class label: Condition not met

compound: Cc1cc(C2CCCN(C(C)c3nc4c(cc3F)CCO4)C2)cc(C)n1 (centres unmarked) [Product 148]
class label: Condition met

compound: Cc1cc(OC[C@H]2CCCN(C(C)c3ccc4c(n3)OCCO4)C2)cc(C)n1 (single isomer, unassigned) [Product 139]
class label: Condition met

compound: Cc1cc(NCC2CCCN(C(C)c3ccc4c(n3)OCCO4)C2)cc(C(F)(F)F)n1 (single isomer, unassigned) [Product 35]
class label: Condition not met

compound: Cc1cc(NC[C@H]2CCCN(C(C)c3nc4c(cc3F)OCCO4)C2)cc(C)n1 (some centres unmarked) [Product 181]
class label: Condition met

# check: IC50 < 300 nM for Cc1cc([C@@H]2CCCN([C@H](C)c3ccc4c(n3)OCCO4)C2)cc(C)n1 (single isomer, unassigned) [Product 160]
Condition not met

Record Cc1cc(C2CCCN(C(C)c3ccc4c(n3)OCCO4)C2)cc(C)n1 (centres unmarked) [Product 1] : is its IC50 strictly below 300 nM?
Condition met

Could you please tell me whether IC50 recorded for Cc1cc(C[C@H]2CCCN(C(C)c3cnc4c(c3)OCCO4)C2)cc(C)n1 (single isomer, unassigned) [Product 132] is less than 300 nM?
Condition met

Lab note: confirm whether the reported IC50 for this compound is below 300 nM, equality not counting. compound: Cc1cc(OC[C@@H]2CCCN(C(C)c3ccc4c(n3)OCCO4)C2)cc(C)n1 (mixture of isomers) [Product 20]
Condition not met

Lab note: confirm whether the reported IC50 for this compound is below 300 nM, equality not counting. compound: Cc1cc(OC[C@H]2CCCN(C(C)c3nc4c(cc3F)OCCO4)C2)cc(C)n1 (some centres unmarked) [Product 152]
Condition met

Each recorded value in this set is attributed to patent US20210300943A1.
